B1: tRNA (parent)
chain: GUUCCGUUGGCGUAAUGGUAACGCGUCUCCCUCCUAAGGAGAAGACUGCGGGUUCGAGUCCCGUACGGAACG

# Variants of: B1
# Experimental details: yeast fitness relative to wild type (ratio to wild type); higher = fitter; tRNA-Arg(CCU), competitive growth, 37 C, YPD
This sample holds only a part of the variants without activity.
Reported property: yeast fitness

| Mutant label | yeast fitness |
| --- | --- |
| G18C G23A G25C A37G A65G | ≤ 0.5 |

## Task Given the variant C4G A14C G25C A45U U47A A57U , what is its reported yeast fitness?
## Result ≤ 0.5

## Task Similarly, U13A C33G A40G C60A ?
## Result ≤ 0.5

Source: the RNAGym collection of RNA variant scans (doi:10.1126/science.aae0568)
